Every entry's value here was drawn from patent US20070122830A1.

Tested on: SKOV3 Ovarian Cancer Cell Line
MEASUREMENT_DESCRIPTION: MTT cytotoxicity assay, transfected SKOV3 cells plus chemotherapeutic drug
Format: cell-based, human
EXPERIMENTAL_PARAMETERS: SKOV3 cells, prohibitin (siRNA) transfected; Table 11 experiment; read-out: EC50, Prohibitin
pEC50: −log10 of the molar value.
Would you mind labelling by pEC50? At or over 9 is TRUE, under is FALSE.

Request: For this compound, is measured pEC50 9 or higher? N.N.[Cl][Pt][Cl] [Cisplatinum]
Result: FALSE

Request: For this compound, is measured pEC50 9 or higher? `COc1cccc2c1C(=O)c1c(O)c3c(c(O)c1C2=O)C[C@@](O)(C(=O)CO)C[C@@H]3O[C@H]1C[C@H](N)[C@H](O)[C@H](C)O1`
Result: TRUE

Request: For this compound, is measured pEC50 9 or higher? `CC[C@]1(O)C[C@H]2CN(CCc3c([nH]c4ccccc34)[C@@](C(=O)OC)(c3cc4c(cc3OC)N(C=O)[C@H]3[C@@](O)(C(=O)OC)[C@H](OC(C)=O)[C@]5(CC)C=CCN6CC[C@]43[C@@H]65)C2)C1`
Result: FALSE

Request: For this compound, is measured pEC50 9 or higher? `S=P(N1CC1)(N1CC1)N1CC1`
Result: FALSE

Request: For this compound, is measured pEC50 9 or higher? `N[C@@H](Cc1ccc(N(CCCl)CCCl)cc1)C(=O)O`
Result: FALSE

Request: For this compound, is measured pEC50 9 or higher? `O=C1c2c(O)ccc(O)c2C(=O)c2c(NCCNCCO)ccc(NCCNCCO)c21`
Result: TRUE

Request: For this compound, is measured pEC50 9 or higher? COc1cc([C@@H]2c3cc4c(cc3[C@@H](O[C@@H]3O[C@@H]5CO[C@@H](C)O[C@H]5[C@H](O)[C@H]3O)[C@H]3COC(=O)[C@H]23)OCO4)cc(OC)c1O [Etoposide]
Result: FALSE
